Data origin: paper PMC10786891

Target Entity: T1, EsCas13d, nuclease-dead (Eubacterium siraeum, UniProt B0MS50, R295A;H300A;R849A;H854A)
T1 sequence: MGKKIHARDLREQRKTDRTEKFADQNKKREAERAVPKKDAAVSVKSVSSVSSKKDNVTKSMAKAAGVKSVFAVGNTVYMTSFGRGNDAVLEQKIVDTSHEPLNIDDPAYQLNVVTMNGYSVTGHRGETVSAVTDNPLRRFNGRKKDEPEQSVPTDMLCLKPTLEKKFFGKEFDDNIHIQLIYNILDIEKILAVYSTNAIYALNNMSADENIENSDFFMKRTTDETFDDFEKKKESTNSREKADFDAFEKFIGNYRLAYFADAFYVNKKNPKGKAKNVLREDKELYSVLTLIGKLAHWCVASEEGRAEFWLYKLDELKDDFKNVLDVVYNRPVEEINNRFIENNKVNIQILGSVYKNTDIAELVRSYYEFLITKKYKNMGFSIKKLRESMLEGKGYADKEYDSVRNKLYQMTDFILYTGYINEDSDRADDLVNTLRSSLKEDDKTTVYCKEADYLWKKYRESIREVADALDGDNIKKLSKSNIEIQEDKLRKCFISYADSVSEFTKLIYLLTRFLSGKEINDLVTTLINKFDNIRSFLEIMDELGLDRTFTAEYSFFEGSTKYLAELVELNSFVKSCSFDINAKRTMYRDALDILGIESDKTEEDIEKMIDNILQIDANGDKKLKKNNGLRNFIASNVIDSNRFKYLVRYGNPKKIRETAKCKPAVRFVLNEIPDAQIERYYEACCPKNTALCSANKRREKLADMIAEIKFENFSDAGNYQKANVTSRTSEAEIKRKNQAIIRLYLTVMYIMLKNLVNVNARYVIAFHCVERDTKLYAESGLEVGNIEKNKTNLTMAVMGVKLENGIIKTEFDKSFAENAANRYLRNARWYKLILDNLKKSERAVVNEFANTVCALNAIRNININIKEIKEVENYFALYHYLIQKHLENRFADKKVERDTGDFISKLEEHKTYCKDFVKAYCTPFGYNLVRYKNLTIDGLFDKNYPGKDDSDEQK
Method: crRNA (strand 1, pre-loaded); Mg2+; 40 mM Tris-HCl pH 7.5, 150 mM NaCl, 6 mM MgCl2, 1 mM DTT, 0.1% Tween-20, 0.2 mg/ml BSA; 25 C; 10 min per concentration, then washed
Assay Context: tags: His6-TwinStrep-SUMO cleaved; N-terminal SNAP kept (SNAP-Surface 488); label: 3' end held by stalled T7 RNA polymerase
Measured Parameter: Kd (nM)
Numbers only, in nM.

Binder: target 2 MT 5'PFS AAU 3'PFS CGC (mixed) RNA 1: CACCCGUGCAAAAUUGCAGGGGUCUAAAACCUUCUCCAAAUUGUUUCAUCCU RNA 2: GGGAAUGGAUCCACAUCUACGAAUUCAAUAGGAUGAAACAAUUUGGAGAAGCGCAGAUCGGAAGAGCACACGU
Kd, nM: 7.3

List the reported Kd of each binder below.
1. target 3 U2A,U22G (mixed) RNA 1: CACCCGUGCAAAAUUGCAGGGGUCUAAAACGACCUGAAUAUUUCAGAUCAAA RNA 2: GGGAAUGGAUCCACAUCUACGAAUUCGUUGUUGAUCUGAAAUAUUCAGGACUGCAGAUCGGAAGAGCACACGU
2. target 2 MT 5'PFS AAC 3'PFS AUU (mixed) RNA 1: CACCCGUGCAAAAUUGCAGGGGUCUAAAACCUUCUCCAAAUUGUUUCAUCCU RNA 2: GGGAAUGGAUCCACAUCUACGAAUUCAACAGGAUGAAACAAUUUGGAGAAGAUUAGAUCGGAAGAGCACACGU
3. target 3 insG 3' of 6,insU 3' of 1 (mixed) RNA 1: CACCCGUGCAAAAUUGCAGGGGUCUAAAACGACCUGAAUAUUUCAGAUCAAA RNA 2: GGGAAUGGAUCCACAUCUACGAAUUCGUUUUUGAUCUGAAAUAUUCGAGGUCUUGCAGAUCGGAAGAGCACACGU

[65.5, 6.1, 56.5]
